Give measured melting point for each item. Keep answers brief.
Answers are plain numbers, in °C.

Cc1ccc(-c2nnc(-c3ccc(N4CCN(C(=O)COc5ccc6[nH]cc(CCN)c6c5)CC4)cc3)o2)cc1.O=C(O)/C=C/C(=O)O; 135
Cc1ccccc1-c1nnc(-c2ccc(N3CCN(C(=O)COc4ccc5[nH]cc(CCN)c5c4)CC3)cc2)o1.O=C(O)/C=C/C(=O)O; 123
NCCc1c[nH]c2ccc(OCC(=O)N3CCN(c4ccc(-c5ccncc5)cc4)CC3)cc12.O=C(O)/C=C/C(=O)O; 176
NCCc1c[nH]c2ccc(OCC(=O)N3CCN(c4ccc(-c5nnc(-c6ccccc6)o5)cc4)CC3)cc12.O=C(O)/C=C/C(=O)O; 170

Now consider the entry below.
The value of melting point measured for the compound NCCc1c[nH]c2ccc(OCC(=O)N3CCN(c4ccc(C5=NCCO5)cc4)CC3)cc12.O=C(O)/C=C/C(=O)O turned out to be 170
